Molecular target: CUG-BP2 RRM3 wild-type (UniProt O95319 416-508, Y508W)
Sequence (O95319 416-508 Y508W): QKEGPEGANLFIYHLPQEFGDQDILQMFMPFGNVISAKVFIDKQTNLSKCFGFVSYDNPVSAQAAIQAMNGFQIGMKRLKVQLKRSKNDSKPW
Test: ITC; 20 mM K phosphate pH 5.8, 10 mM NaCl, 0.1% beta-mercaptoethanol, 25 C (NMR titrations and ITC); hnRNP A1: 10 mM Na phosphate pH 6.5, 10 mM beta-mercaptoethanol
Conditions: protein: recombinant
recorded.metric: Kd (µM)
Numbers only; they are read as µM.

Lookup: Recorded Kd for UUUAA (ssRNA) , please?
Found: 18
